Target: recombinant human CD3ε/δ heterodimer (human) (UniProt P07766)
Sequence (P07766 23-126, stated change not applied, chain 1 of 2): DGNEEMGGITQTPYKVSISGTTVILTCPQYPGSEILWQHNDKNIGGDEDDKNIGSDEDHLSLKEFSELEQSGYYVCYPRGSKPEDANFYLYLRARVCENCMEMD
Sequence (P04234 22-105, stated change not applied, chain 2 of 2, further chain): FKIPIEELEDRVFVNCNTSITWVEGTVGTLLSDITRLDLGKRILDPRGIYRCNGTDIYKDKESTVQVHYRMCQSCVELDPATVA
Assay: ELISA, coated CD3ε/δ
# Absorbance (450 nm) per record follows
Answer using only a numeral; do not append any unit.

// solved cases for Absorbance (450 nm) follow
Binder: G08 (antibody, human IgG1, lambda, L234A L235A, V domains shown) VH: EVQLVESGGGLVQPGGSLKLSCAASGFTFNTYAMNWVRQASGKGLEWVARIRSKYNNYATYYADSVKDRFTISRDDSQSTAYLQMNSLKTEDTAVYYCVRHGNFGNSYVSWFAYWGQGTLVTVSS VL: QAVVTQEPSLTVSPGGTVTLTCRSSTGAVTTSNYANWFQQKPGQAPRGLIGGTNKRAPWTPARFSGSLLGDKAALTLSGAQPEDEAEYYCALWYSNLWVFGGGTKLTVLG
Absorbance (450 nm): 0.137
--
Binder: H09 (antibody, human IgG1, lambda, L234A L235A, V domains shown) VH: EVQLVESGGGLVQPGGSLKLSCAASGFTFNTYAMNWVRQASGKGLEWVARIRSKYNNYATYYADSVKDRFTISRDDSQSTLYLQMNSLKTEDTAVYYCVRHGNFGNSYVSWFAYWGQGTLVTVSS VL: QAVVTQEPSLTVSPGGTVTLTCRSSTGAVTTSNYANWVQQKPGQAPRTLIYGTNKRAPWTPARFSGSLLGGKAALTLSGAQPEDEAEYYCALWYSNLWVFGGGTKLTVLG
Absorbance (450 nm): 0.141
--
Binder: C09 (antibody, human IgG1, lambda, L234A L235A, V domains shown) VH: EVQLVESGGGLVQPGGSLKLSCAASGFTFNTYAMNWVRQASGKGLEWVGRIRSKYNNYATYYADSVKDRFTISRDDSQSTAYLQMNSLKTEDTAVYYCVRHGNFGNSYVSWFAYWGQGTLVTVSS VL: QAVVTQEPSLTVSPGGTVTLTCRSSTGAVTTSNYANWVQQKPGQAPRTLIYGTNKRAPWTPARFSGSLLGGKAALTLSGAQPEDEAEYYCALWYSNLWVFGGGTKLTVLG
Absorbance (450 nm): 0.109
--
Binder: E13 (antibody, human IgG1, lambda, L234A L235A, V domains shown) VH: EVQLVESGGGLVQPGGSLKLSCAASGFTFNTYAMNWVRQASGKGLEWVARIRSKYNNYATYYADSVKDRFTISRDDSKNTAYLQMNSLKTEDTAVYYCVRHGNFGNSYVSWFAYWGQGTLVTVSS VL: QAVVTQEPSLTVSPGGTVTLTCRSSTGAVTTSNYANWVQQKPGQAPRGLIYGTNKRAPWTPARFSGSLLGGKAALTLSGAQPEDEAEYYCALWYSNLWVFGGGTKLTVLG
Absorbance (450 nm): 0.139
--
Binder: A04 (antibody, human IgG1, lambda, L234A L235A, V domains shown) VH: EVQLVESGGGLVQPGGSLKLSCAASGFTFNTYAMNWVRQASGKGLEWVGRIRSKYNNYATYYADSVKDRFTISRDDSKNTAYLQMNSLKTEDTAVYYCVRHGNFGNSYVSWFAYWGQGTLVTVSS VL: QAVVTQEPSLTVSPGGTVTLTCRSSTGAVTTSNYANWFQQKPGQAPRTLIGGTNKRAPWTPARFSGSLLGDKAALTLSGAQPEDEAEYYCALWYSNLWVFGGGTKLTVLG
Absorbance (450 nm): 0.098
--
Binder: F13 (antibody, human IgG1, lambda, L234A L235A, V domains shown) VH: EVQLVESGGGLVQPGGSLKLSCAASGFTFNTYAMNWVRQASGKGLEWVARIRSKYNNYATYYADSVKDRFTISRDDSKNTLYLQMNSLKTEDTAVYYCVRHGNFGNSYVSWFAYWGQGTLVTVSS VL: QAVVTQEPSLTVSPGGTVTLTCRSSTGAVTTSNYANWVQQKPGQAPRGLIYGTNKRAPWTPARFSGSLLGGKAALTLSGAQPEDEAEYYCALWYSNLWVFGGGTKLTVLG
Absorbance (450 nm): 0.192

Answer with the recorded Absorbance (450 nm) for the binder listed here: G10 (antibody, human IgG1, lambda, L234A L235A, V domains shown) VH: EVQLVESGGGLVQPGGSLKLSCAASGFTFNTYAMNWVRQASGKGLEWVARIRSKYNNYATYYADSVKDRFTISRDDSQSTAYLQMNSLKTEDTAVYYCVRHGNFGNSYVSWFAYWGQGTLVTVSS VL: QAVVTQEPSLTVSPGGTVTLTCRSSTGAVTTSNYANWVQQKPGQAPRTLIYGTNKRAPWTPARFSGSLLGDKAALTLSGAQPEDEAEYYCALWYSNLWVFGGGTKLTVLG
0.099

Answer with the recorded Absorbance (450 nm) for the binder listed here: E11 (antibody, human IgG1, lambda, L234A L235A, V domains shown) VH: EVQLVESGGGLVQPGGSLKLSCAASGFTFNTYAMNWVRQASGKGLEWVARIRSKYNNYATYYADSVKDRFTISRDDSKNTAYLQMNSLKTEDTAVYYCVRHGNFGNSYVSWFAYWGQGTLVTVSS VL: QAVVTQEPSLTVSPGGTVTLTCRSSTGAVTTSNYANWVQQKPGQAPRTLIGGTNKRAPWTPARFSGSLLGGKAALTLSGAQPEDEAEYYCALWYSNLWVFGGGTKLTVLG
0.098

Answer with the recorded Absorbance (450 nm) for the binder listed here: B11 (antibody, human IgG1, lambda, L234A L235A, V domains shown) VH: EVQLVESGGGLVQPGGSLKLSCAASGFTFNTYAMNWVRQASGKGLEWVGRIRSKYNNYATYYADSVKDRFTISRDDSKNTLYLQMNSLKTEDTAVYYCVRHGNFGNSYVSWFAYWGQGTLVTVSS VL: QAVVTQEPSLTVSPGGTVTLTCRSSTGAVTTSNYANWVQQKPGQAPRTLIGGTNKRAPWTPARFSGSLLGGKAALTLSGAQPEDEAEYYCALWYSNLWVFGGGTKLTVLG
0.132

Answer with the recorded Absorbance (450 nm) for the binder listed here: H13 (antibody, human IgG1, lambda, L234A L235A, V domains shown) VH: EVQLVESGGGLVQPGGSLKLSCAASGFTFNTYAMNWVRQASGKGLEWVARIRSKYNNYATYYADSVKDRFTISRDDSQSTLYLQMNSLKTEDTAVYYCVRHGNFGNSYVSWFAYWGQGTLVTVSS VL: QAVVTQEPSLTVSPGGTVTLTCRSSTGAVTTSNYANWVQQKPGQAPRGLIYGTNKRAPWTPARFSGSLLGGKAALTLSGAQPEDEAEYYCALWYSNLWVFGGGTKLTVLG
0.175
